# Target entity: T1, human ferroportin (SLC40A1) fused in frame with GFP (human) (UniProt Q9NP59)
# T1 sequence (looked up): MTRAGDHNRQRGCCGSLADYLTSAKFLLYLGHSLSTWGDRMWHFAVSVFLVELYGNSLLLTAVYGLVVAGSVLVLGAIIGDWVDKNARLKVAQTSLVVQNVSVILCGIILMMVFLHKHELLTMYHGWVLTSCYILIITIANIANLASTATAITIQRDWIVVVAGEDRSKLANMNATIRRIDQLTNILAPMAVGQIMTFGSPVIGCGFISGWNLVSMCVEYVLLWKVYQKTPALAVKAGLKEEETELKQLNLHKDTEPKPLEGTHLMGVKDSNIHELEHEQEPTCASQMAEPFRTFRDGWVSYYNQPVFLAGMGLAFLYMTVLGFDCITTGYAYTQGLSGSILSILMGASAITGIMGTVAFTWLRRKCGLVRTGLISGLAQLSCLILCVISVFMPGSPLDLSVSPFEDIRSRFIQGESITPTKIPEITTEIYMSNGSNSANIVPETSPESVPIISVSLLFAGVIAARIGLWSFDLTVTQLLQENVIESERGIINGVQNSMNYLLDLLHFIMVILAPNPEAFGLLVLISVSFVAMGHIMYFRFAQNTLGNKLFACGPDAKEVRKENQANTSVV
# Experiment description: cell-based or functional assay
Positions of bridges follow the written chain, without caps; N, C: chain ends. Non-standard residues stand in square brackets, D forms with d. Groups on a side chain read outwards from the residue. *: point of attachment. PEG12 = NCCOCCOCCOCCOCCOCCOCCOCCOCCOCCOCCOCCOCCC(=O)O; Dip = N[C@H](C(=O)O)C(c1ccccc1)c1ccccc1; Palmitoyl = CCCCCCCCCCCCCCCC(=O)*; 2Pal = N[C@@H](Cc1ccccn1)C(=O)O; Isovaleryl = CC(C)CC(=O)*; αMeC = C[C@](N)(CS)C(=O)O; Npc = nipecotic acid; Ahx = NCCCCCC(=O)O
Quantity measured: IC50: FPN internalisation (nM)

INSERT INTO results (binder, readout_number) VALUES
  ('Isovaleryl-DTH[Dip][Npc]CI[dK]FK([PEG12-Palmitoyl])[dK]C-NH2 (disulfide 6-12 (inferred)) [Seq. No. 352]', 6.48),
  ('Isovaleryl-DTH[Dip][Npc]CI[dK]FK([PEG12-Palmitoyl])KC-NH2 (disulfide 6-12 (inferred)) [Seq. No. 360]', 9.64),
  ('Isovaleryl-DTH[Dip]PCIK([Ahx-Palmitoyl])[2Pal]C-NH2 (disulfide 6-10 (inferred)) [Seq. No. 320]', 9.72),
  ('Isovaleryl-DTHFP[αMeC]I[dK]FK([PEG12-Palmitoyl])K[αMeC]-NH2 (disulfide 6-12 (inferred)) [Seq. No. 354]', 10),
  ('Isovaleryl-DTHFP[αMeC]I[dK]FK([PEG12-Palmitoyl])KC-NH2 (disulfide 6-12 (inferred)) [Seq. No. 353]', 21.5);
